Reference source for all entries: the supplement of paper PMC13172266

# Tested on: U2932 TK216-resistant clone 2
# assay name: cell proliferation relative to vehicle (% of vehicle); higher = less growth inhibition
# condition parameters: 50 nM; 72 h
Give measured cell proliferation for each item. Keep answers brief.
Form field (numeric): enter value without unit.

// query Param item = CCN(CC)CCCC(C)Nc1ccnc2cc(Cl)ccc12 (configuration not stated) [Chloroquine Phosphate] ; retrieve measured cell proliferation.
// result 98.7

// query Further, for CS(=O)(=O)c1ccc(C(=O)Nc2ccc(Cl)c(-c3ccccn3)c2)c(Cl)c1 ?
// result 106

// query How about CCN(CC)CCNC(=O)c1c(C)[nH]c(/C=C2\C(=O)Nc3ccc(F)cc32)c1C [Sunitinib Malate] ?
// result 107

// query Entry to check: Nc1nccc2c1ncn2C1C=C(CO)C(O)C1O (configuration not stated)
// result 103

// query Field entry: COC(=O)Nc1ccc(-c2nc(N3CCOCC3)c3cnn(C4CCN(C(=O)OC)CC4)c3n2)cc1
// result 107

// query What about O=C(O)c1ccc(O)c2ncccc12 ?
// result 104

// query Again, but for COCCOc1ccc2c(c1)ncn2-c1ccc2cccc(N3CCC(N)CC3)c2n1
// result 107

// query // same read-out, input: Oc1cccc(-c2nc(N3CCOCC3)c3oc4ncccc4c3n2)c1
// result 97.4

// query Subsequent entry: OCCn1cc(-c2cnc3nnn(Cc4ccc5ncccc5c4)c3n2)cn1
// result 111

// query Would you kindly repeat that for C[C@]1(O)C[C@@H](c2nc(-c3ccc4ccc(-c5ccccc5)nc4c3)c3c(N)nccn32)C1 ?
// result 104

// query Consider next the compound C[C@]12CC[C@@H]3c4ccc(O)cc4C[C@@H](CCCCCCCCC[S+]([O-])CCCC(F)(F)C(F)(F)F)[C@H]3[C@@H]1CC[C@@H]2O (some centres not stated) in the same way.
// result 98.2

// query What do you get for O=c1oc2c(O)c(O)cc3c(=O)oc4c(O)c(O)cc1c4c23 ?
// result 99

// query Subsequent entry: Nc1cccc2c1CN(C1CCC(=O)NC1=O)C2=O (configuration not stated) [Lenalidomide (CC-5013)]
// result 107

// query Param item: O=c1cc(N2CCOCC2)oc2c(-c3ccccc3)cccc12
// result 110

// query Request: CC(C)C[C@H](NC(=O)[C@H](CCc1ccccc1)NC(=O)CN1CCOCC1)C(=O)N[C@@H](Cc1ccccc1)C(=O)N[C@@H](CC(C)C)C(=O)[C@@]1(C)CO1
// result -2.48

// query Same again, this time with COC(=O)c1ccc([C@H]2c3[nH]c4ccccc4c3C[C@H](C(=O)OC)N2C(=O)CCl)cc1
// result 85

// query Now the same for Nc1ccn([C@@H]2O[C@H](CO)[C@@H](O)C2(F)F)c(=O)n1
// result 15.3
